Target: Glutamate NMDA receptor; Grin1/Grin2c (Rattus norvegicus, UniProt P35439+Q00961)
Sequence (Q00961 whole entry, other chains not shown): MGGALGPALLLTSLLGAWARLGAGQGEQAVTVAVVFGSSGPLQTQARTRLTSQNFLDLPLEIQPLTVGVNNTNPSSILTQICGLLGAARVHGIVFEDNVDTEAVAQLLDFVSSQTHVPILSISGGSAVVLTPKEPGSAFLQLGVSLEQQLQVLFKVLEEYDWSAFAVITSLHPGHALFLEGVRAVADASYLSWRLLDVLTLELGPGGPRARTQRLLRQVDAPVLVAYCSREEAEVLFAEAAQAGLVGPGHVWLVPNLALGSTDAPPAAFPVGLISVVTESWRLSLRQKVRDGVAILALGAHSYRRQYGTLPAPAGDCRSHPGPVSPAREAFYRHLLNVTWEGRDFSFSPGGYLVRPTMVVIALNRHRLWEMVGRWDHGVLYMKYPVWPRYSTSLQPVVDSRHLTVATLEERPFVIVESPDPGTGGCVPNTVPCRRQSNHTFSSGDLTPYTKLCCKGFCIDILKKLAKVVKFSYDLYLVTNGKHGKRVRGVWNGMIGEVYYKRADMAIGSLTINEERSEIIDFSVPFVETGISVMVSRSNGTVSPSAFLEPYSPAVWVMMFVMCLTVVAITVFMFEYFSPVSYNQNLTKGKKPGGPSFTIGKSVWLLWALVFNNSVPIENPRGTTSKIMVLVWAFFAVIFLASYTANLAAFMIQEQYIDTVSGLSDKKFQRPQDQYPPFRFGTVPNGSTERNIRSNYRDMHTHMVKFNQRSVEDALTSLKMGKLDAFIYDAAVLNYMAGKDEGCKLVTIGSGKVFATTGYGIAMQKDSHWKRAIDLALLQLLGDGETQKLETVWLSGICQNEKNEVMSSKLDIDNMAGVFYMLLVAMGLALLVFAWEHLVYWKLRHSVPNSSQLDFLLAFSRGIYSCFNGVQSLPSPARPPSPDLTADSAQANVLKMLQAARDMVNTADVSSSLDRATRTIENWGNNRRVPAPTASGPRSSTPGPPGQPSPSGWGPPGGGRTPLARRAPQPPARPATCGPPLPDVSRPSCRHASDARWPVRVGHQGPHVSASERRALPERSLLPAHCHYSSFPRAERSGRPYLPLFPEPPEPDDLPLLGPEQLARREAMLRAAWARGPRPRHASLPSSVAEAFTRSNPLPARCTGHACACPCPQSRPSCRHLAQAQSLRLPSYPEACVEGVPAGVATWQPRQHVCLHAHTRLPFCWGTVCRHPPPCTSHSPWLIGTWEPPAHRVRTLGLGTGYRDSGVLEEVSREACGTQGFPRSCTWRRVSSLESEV
Experiment: Activity at rat recombinant GluN1/GluN2C receptor assessed as potentiation of glycine/glutamate-induced activation by two-electrode voltage clamp technique
pEC50: −log10 of the molar value.
Class Satisfied: pEC50 at least 5. Class Not satisfied: pEC50 below 5.

compound="COc1ccc(/C=C/C2c3cc(OC)c(OC)cc3CCN2C(=O)c2cccc(Br)c2)cc1 (racemic)" target_system="Glutamate NMDA receptor; Grin1/Grin2c (Rattus norvegicus, UniProt P35439+Q00961)" label=Satisfied
compound="COc1ccc(OCC2c3cc(OC)c(OC)cc3CCN2C(=S)Nc2cccc(C)c2)cc1 (racemic)" target_system="Glutamate NMDA receptor; Grin1/Grin2c (Rattus norvegicus, UniProt P35439+Q00961)" label=Satisfied
compound="COc1ccc(OCC2c3ccc(C)cc3CCN2C(=O)c2cccc(Br)c2)cc1 (racemic)" target_system="Glutamate NMDA receptor; Grin1/Grin2c (Rattus norvegicus, UniProt P35439+Q00961)" label=Satisfied
compound="COc1ccc(OCC2c3ccc(OC)cc3CCN2C(=O)c2cccc(Br)c2)cc1 (racemic)" target_system="Glutamate NMDA receptor; Grin1/Grin2c (Rattus norvegicus, UniProt P35439+Q00961)" label=Satisfied
compound="COc1ccc(OCC2c3cc(OC)c(OC)cc3CCN2C(=O)c2cc(Cl)cc(Cl)c2)cc1 (racemic)" target_system="Glutamate NMDA receptor; Grin1/Grin2c (Rattus norvegicus, UniProt P35439+Q00961)" label=Satisfied
compound="COc1cc2c(cc1OC)C(COc1ccc(SC)cc1)N(C(=O)c1cccc(Cl)c1)CC2 (racemic)" target_system="Glutamate NMDA receptor; Grin1/Grin2c (Rattus norvegicus, UniProt P35439+Q00961)" label=Satisfied
compound="COc1ccc(OCC2c3cc(OC)c(OC)cc3CCN2C(=O)c2ccc(Cl)cc2)cc1 (racemic)" target_system="Glutamate NMDA receptor; Grin1/Grin2c (Rattus norvegicus, UniProt P35439+Q00961)" label=Satisfied
compound="COc1ccc(/C=C/C2c3cc(OC)c(OC)cc3CCN2C(=O)c2cccc(Cl)c2)cc1 (racemic)" target_system="Glutamate NMDA receptor; Grin1/Grin2c (Rattus norvegicus, UniProt P35439+Q00961)" label=Satisfied
compound="COc1ccc(OCC2c3cc(OC)c(OC)cc3CCN2C(=O)c2cccc(C)c2)cc1 (racemic)" target_system="Glutamate NMDA receptor; Grin1/Grin2c (Rattus norvegicus, UniProt P35439+Q00961)" label=Satisfied
compound="COc1cc2c(cc1OC)C(COc1ccc(N(C)C)cc1)N(C(=O)c1cccc(Cl)c1)CC2 (racemic)" target_system="Glutamate NMDA receptor; Grin1/Grin2c (Rattus norvegicus, UniProt P35439+Q00961)" label="Not satisfied"
compound="COc1ccc(OCC2c3cc(C)c(C)cc3CCN2C(=O)c2cccc(Br)c2)cc1 (racemic)" target_system="Glutamate NMDA receptor; Grin1/Grin2c (Rattus norvegicus, UniProt P35439+Q00961)" label=Satisfied
compound="COc1ccc(OCC2c3cc(OC)c(OC)cc3CCN2C(=O)c2ccc(Cl)c(Cl)c2)cc1 (racemic)" target_system="Glutamate NMDA receptor; Grin1/Grin2c (Rattus norvegicus, UniProt P35439+Q00961)" label="Not satisfied"
compound="COc1ccc(OCC2c3cc(OC)c(OC)cc3CCN2C(=O)c2cccc(-c3ccccc3)c2)cc1 (racemic)" target_system="Glutamate NMDA receptor; Grin1/Grin2c (Rattus norvegicus, UniProt P35439+Q00961)" label=Satisfied
compound="COc1ccc(OCC2c3cc(OC)c(OC)cc3CCN2C(=O)c2cccc(Br)c2)cc1 (racemic)" target_system="Glutamate NMDA receptor; Grin1/Grin2c (Rattus norvegicus, UniProt P35439+Q00961)" label=Satisfied
compound="COc1ccc(OCC2c3ccc(C)cc3CCN2C(=O)c2cccc(Cl)c2)cc1 (racemic)" target_system="Glutamate NMDA receptor; Grin1/Grin2c (Rattus norvegicus, UniProt P35439+Q00961)" label=Satisfied
compound="COc1ccc(OCC2c3cc4c(cc3CCN2C(=O)c2cccc(Cl)c2)OCO4)cc1 (racemic)" target_system="Glutamate NMDA receptor; Grin1/Grin2c (Rattus norvegicus, UniProt P35439+Q00961)" label="Not satisfied"
compound="COc1ccc(OCC2c3cc(OC)c(OC)cc3CCN2C(=O)c2cccc(C#N)c2)cc1 (racemic)" target_system="Glutamate NMDA receptor; Grin1/Grin2c (Rattus norvegicus, UniProt P35439+Q00961)" label="Not satisfied"
compound="COc1ccc(OCC2c3cc4c(cc3CCN2C(=O)c2cccc(Br)c2)OCO4)cc1 (racemic)" target_system="Glutamate NMDA receptor; Grin1/Grin2c (Rattus norvegicus, UniProt P35439+Q00961)" label=Satisfied
compound="COc1ccc(OCC2c3cc(OC)c(OC)cc3CCN2C(=O)c2cccc(Cl)c2Cl)cc1 (racemic)" target_system="Glutamate NMDA receptor; Grin1/Grin2c (Rattus norvegicus, UniProt P35439+Q00961)" label=Satisfied
compound="COc1ccc(OCC2c3ccc(OCc4ccccc4)cc3CCN2C(=O)c2ccccc2)cc1 (racemic)" target_system="Glutamate NMDA receptor; Grin1/Grin2c (Rattus norvegicus, UniProt P35439+Q00961)" label=Satisfied
compound="COc1ccc(OCC2c3cc(OC)c(OC)cc3CCN2C(=O)c2cccc(I)c2)cc1 (racemic)" target_system="Glutamate NMDA receptor; Grin1/Grin2c (Rattus norvegicus, UniProt P35439+Q00961)" label=Satisfied
compound="CCc1ccc(OCC2c3cc(OC)c(OC)cc3CCN2C(=O)c2ccccc2)cc1 (racemic)" target_system="Glutamate NMDA receptor; Grin1/Grin2c (Rattus norvegicus, UniProt P35439+Q00961)" label="Not satisfied"
compound="COc1ccc(OCC2c3ccc(OCc4ccccc4)cc3CCN2C(=O)c2cccc(Cl)c2)cc1 (racemic)" target_system="Glutamate NMDA receptor; Grin1/Grin2c (Rattus norvegicus, UniProt P35439+Q00961)" label=Satisfied

src = ChEMBL document CHEMBL2396604
